Every entry's value here was drawn from paper PMC8151276.

TESTED TARGET: PTGER2 (Homo sapiens)
Construct: purchased Promega (in-house HiBiT-GPCR construct library, NanoBRET)
Sequence (P43116 whole entry): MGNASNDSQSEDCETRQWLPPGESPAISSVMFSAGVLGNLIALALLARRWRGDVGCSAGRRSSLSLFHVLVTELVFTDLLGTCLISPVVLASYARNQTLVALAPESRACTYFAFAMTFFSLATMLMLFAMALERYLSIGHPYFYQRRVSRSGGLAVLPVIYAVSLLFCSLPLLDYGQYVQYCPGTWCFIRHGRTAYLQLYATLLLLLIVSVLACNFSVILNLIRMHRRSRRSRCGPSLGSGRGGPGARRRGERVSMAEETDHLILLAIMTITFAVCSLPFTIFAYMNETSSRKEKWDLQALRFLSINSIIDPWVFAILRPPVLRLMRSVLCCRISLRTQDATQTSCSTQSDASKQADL
METHOD NOTES: NanoBRET screen HiBiT-PTGER2 in HEK293
Type: binding
CONDITION INFO: PTGER2; tracer 0.1μM
QUANTITY NAME: NanoBRET Fold Response

- CC(C)N(CC[C@H](c1ccccc1)c1cc(CCNC(=O)CCOCCOCCOCCOCCNC(=O)CCc2ccc3n2[B-](F)(F)[N+]2=C(c4ccc[nH]4)C=CC2=C3)ccc1O)C(C)C: 1.00
- O=C(CCc1ccc2n1[B-](F)(F)[N+]1=C(c3ccc[nH]3)C=CC1=C2)NCc1ccc(C(=O)NCCOCCC(=O)N[C@@H]2CC[C@@]3(O)[C@H]4Cc5ccc(O)c6c5[C@@]3(CCN4CC3CC3)[C@H]2O6)cc1 [Naltrexone-3-NB590]: 1.04
- Cc1nc2n(c(=O)c1CCN1CCC(c3noc4cc(F)ccc34)CC1)CCCC2OC(=O)NCCOCCOCCOCCOCCNC(=O)CCc1ccc2n1[B-](F)(F)[N+]1=C(c3ccc[nH]3)C=CC1=C2 (stereo not drawn): 1.01

----------
Each entry below carries its recorded NanoBRET Fold Response.
TESTED TARGET: NPY1R (Homo sapiens, UniProt P25929)
Construct: purchased Promega (in-house HiBiT-GPCR construct library, NanoBRET)
Sequence (P25929 whole entry): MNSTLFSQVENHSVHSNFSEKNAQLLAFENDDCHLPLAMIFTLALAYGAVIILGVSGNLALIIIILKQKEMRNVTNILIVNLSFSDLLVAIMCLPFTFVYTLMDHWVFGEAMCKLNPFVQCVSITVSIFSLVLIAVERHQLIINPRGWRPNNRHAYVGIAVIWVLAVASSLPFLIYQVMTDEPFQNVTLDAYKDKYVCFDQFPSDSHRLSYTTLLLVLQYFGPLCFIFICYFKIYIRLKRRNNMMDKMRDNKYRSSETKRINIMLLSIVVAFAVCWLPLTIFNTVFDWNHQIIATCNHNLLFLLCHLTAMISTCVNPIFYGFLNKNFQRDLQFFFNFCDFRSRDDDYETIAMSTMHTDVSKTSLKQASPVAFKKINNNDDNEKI
METHOD NOTES: NanoBRET screen HiBiT-NPY1R in HEK293
Format: binding
CONDITION INFO: NPY1R; tracer 0.1μM
QUANTITY NAME: NanoBRET Fold Response

* COc1ccccc1N1CCN(CCCCN2C(=O)c3ccc(CNC(=O)CCOCCOCCOCCOCCNC(=O)CCc4ccc5n4[B-](F)(F)[N+]4=C(c6ccc[nH]6)C=CC4=C5)cc3C2=O)CC1 | 1.02
* N#CN=C(NCCCOc1cccc(CN2CCCCC2)c1)NCCNC(=O)CCOCCOCCOCCOCCNC(=O)CCc1ccc2n1[B-](F)(F)[N+]1=C(c3ccc[nH]3)C=CC1=C2 | 0.99
* Cc1cc2c(s1)Nc1ccccc1N=C2N1CCN(CCCNC(=O)CCOCCOCCOCCOCCNC(=O)CCc2ccc3n2[B-](F)(F)[N+]2=C(c4ccc[nH]4)C=CC2=C3)CC1 | 1.02
* CCCn1c(=O)c2[nH]c(-c3ccc(OCC(=O)NCCNC(=O)CCOCCNC(=O)c4ccc(CNC(=O)CCc5ccc6n5[B-](F)(F)[N+]5=C(c7ccc[nH]7)C=CC5=C6)cc4)cc3)nc2n(CCC)c1=O | 1.01

----------
TESTED TARGET: PTGER1 (Homo sapiens, UniProt P34995)
Construct: purchased Promega (in-house HiBiT-GPCR construct library, NanoBRET)
Sequence (P34995 1-402): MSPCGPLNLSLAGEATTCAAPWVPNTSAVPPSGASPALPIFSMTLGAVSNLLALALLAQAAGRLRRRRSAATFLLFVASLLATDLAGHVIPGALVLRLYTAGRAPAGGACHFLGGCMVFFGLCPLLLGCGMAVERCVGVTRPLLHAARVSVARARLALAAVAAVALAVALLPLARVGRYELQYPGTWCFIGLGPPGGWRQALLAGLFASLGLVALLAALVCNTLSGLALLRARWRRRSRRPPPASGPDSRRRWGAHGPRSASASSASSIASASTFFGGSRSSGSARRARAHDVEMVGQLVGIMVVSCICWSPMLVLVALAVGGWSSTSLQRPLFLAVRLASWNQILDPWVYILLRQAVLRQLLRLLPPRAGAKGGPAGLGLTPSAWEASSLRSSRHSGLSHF
METHOD NOTES: NanoBRET screen HiBiT-PTGER1 in HEK293
Type: binding
CONDITION INFO: PTGER1; tracer 1μM
Each entry below carries its recorded NanoBRET Fold Response.
QUANTITY NAME: NanoBRET Fold Response

* CC(C)N(CC[C@H](c1ccccc1)c1cc(CCNC(=O)c2ccc(CNC(=O)CCc3ccc4n3[B-](F)(F)[N+]3=C(c5ccc[nH]5)C=CC3=C4)cc2)ccc1O)C(C)C | 1.03
* COc1ccccc1N1CCN(CCCCN2C(=O)c3ccc(CNC(=O)CCOCCNC(=O)c4ccc(CNC(=O)CCc5ccc6n5[B-](F)(F)[N+]5=C(c7ccc[nH]7)C=CC5=C6)cc4)cc3C2=O)CC1 | 1.11
* CC(C)N(CC[C@H](c1ccccc1)c1cc(CCNC(=O)CCOCCOCCOCCOCCNC(=O)CCc2ccc3n2[B-](F)(F)[N+]2=C(c4ccc[nH]4)C=CC2=C3)ccc1O)C(C)C | 1.23
* Cc1nc2n(c(=O)c1CCN1CCC(c3noc4cc(F)ccc34)CC1)CCCC2OC(=O)NCCOCCOCCOCCOCCNC(=O)CCc1ccc2n1[B-](F)(F)[N+]1=C(c3ccc[nH]3)C=CC1=C2 (centres unmarked) | 1.07
* Cc1cc2c(s1)Nc1ccccc1N=C2N1CCN(CCCNC(=O)CCOCCOCCOCCOCCNC(=O)CCc2ccc3n2[B-](F)(F)[N+]2=C(c4ccc[nH]4)C=CC2=C3)CC1 | 1.04
